Molecular target: MERTK (UniProt Q12866)
Sequence (Q12866 whole entry, looked up): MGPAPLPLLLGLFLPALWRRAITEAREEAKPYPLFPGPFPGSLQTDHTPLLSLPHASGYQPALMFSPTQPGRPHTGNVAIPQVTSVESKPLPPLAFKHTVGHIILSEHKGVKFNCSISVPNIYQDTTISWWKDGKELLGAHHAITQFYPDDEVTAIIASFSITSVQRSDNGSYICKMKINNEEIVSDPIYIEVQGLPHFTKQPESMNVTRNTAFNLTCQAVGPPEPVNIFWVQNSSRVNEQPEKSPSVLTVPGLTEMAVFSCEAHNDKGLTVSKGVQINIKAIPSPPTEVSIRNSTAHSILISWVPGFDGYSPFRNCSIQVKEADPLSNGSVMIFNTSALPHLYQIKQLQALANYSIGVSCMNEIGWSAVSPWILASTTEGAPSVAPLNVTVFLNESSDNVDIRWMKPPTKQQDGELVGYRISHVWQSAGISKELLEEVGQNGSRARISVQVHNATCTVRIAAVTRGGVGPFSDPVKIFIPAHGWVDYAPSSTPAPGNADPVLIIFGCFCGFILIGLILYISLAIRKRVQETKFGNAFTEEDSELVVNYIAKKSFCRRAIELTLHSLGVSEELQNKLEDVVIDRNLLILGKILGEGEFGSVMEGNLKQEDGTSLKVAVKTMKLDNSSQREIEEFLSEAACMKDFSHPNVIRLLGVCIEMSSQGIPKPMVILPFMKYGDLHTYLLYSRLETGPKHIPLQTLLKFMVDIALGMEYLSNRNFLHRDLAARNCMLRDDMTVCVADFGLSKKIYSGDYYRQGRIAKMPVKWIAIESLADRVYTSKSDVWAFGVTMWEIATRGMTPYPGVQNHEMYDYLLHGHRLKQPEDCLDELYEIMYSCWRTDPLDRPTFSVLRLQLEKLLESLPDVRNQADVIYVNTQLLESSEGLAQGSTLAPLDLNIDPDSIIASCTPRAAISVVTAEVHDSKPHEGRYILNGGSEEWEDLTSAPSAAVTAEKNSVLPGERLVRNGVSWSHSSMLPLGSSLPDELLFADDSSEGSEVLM
Test: phosphorylation enrichment, bacterial display (enrichment ratio); higher = better substrate or ligand; peptides without Tyr show the background;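 also: 11-residue human phosphosite peptides and single-mutation variants displayed on the E. coli surface, counted by deep sequencing, each peptide's frequency after selection divided by its frequency in the unselected input library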;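 also: frequency after pTyr selection over input frequency; kinase dosed for 20-30% of maximal phosphorylation in three min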
Outcome: Fulfilled for phosphorylation enrichment of at least 0.6; Not fulfilled for anything lower.

Exam item: # bool: phosphorylation enrichment of DLLNSYTENEG [HSPA4L_Y600_I601T] >= 0.6
Marked response: Not fulfilled

Exam item: # bool: phosphorylation enrichment of AAQNCYKVTNA [TPI1_Y105_G110A] >= 0.6
Marked response: Fulfilled

Exam item: # bool: phosphorylation enrichment of SDQRRYSLIDR [CLIP2_Y972] >= 0.6
Marked response: Not fulfilled

Exam item: # bool: phosphorylation enrichment of YSGDYYRIQGR [DDR2_Y741] >= 0.6
Marked response: Fulfilled

Exam item: # bool: phosphorylation enrichment of KLADVYQAELR [GFAP_Y116] >= 0.6
Marked response: Not fulfilled

Exam item: # bool: phosphorylation enrichment of ALRASYTPSPA [ESS2_Y418] >= 0.6
Marked response: Not fulfilled

Exam item: # bool: phosphorylation enrichment of FARNCYVAGQF [G6PD_Y107_S106C_YF] >= 0.6
Marked response: Not fulfilled

Exam item: # bool: phosphorylation enrichment of KVITDYFVDMK [MPP4_Y566_YF] >= 0.6
Marked response: Not fulfilled

Exam item: # bool: phosphorylation enrichment of GFKVRYATGSI [FGFR1_Y210_W213G_YF] >= 0.6
Marked response: Not fulfilled

Exam item: # bool: phosphorylation enrichment of LEDEVYAQKMK [TPM2_Y261] >= 0.6
Marked response: Fulfilled

Exam item: # bool: phosphorylation enrichment of AGGTRYRYVSQ [UCN3_Y95_R91G] >= 0.6
Marked response: Not fulfilled

Exam item: # bool: phosphorylation enrichment of NTVLGYFIGCI [GARS1_Y408_R412C] >= 0.6
Marked response: Not fulfilled

Exam item: # bool: phosphorylation enrichment of EQQRAYLEGTC [HLA-C_Y183_L180Q] >= 0.6
Marked response: Not fulfilled

Exam item: # bool: phosphorylation enrichment of VKANTYENYWP [GATM_Y100_K102N] >= 0.6
Marked response: Fulfilled

Exam item: # bool: phosphorylation enrichment of NAGDFYDLFGG [PTPN11_Y63_T59A_YF] >= 0.6
Marked response: Fulfilled

Exam item: # bool: phosphorylation enrichment of KEDPEYKKKFR [FAM161A_Y278_E273K] >= 0.6
Marked response: Not fulfilled

Exam item: # bool: phosphorylation enrichment of VKANTYEKYWL [GATM_Y100_P105L] >= 0.6
Marked response: Fulfilled

Exam item: # bool: phosphorylation enrichment of RASDYYSQQMA [GBP6_Y334_A331S] >= 0.6
Marked response: Not fulfilled

Exam item: # bool: phosphorylation enrichment of SVVVTYEPPEV [TP53_Y220_P219T] >= 0.6
Marked response: Fulfilled

Exam item: # bool: phosphorylation enrichment of NTYEKYLEEEY [TF_Y669_G671E] >= 0.6
Marked response: Not fulfilled

Exam item: # bool: phosphorylation enrichment of TEDAEYDVQSK [PTCHD3_Y335_P333A] >= 0.6
Marked response: Not fulfilled

Exam item: # bool: phosphorylation enrichment of AKRKGYDMRVD [NEB_Y2770] >= 0.6
Marked response: Not fulfilled

Exam item: # bool: phosphorylation enrichment of RYVTRHIYNRE [HLA-DQB1_Y62_Y62H] >= 0.6
Marked response: Fulfilled

Exam item: # bool: phosphorylation enrichment of KKRSVYIKVLF [CC2D2A_Y683_L684I] >= 0.6
Marked response: Not fulfilled

Exam item: # bool: phosphorylation enrichment of AAGGRYDGLLG [HARS2_Y364_V368L] >= 0.6
Marked response: Not fulfilled

Exam item: # bool: phosphorylation enrichment of RRAKGYPIDLY [ITGB2_Y125] >= 0.6
Marked response: Fulfilled

Exam item: # bool: phosphorylation enrichment of DASAVYLRDFQ [PLCG2_Y242_H244R] >= 0.6
Marked response: Fulfilled

* * *

Answer each item with its documented phosphorylation enrichment.
Target: EPHB2 (UniProt P29323)
Sequence (P29323 whole entry, looked up): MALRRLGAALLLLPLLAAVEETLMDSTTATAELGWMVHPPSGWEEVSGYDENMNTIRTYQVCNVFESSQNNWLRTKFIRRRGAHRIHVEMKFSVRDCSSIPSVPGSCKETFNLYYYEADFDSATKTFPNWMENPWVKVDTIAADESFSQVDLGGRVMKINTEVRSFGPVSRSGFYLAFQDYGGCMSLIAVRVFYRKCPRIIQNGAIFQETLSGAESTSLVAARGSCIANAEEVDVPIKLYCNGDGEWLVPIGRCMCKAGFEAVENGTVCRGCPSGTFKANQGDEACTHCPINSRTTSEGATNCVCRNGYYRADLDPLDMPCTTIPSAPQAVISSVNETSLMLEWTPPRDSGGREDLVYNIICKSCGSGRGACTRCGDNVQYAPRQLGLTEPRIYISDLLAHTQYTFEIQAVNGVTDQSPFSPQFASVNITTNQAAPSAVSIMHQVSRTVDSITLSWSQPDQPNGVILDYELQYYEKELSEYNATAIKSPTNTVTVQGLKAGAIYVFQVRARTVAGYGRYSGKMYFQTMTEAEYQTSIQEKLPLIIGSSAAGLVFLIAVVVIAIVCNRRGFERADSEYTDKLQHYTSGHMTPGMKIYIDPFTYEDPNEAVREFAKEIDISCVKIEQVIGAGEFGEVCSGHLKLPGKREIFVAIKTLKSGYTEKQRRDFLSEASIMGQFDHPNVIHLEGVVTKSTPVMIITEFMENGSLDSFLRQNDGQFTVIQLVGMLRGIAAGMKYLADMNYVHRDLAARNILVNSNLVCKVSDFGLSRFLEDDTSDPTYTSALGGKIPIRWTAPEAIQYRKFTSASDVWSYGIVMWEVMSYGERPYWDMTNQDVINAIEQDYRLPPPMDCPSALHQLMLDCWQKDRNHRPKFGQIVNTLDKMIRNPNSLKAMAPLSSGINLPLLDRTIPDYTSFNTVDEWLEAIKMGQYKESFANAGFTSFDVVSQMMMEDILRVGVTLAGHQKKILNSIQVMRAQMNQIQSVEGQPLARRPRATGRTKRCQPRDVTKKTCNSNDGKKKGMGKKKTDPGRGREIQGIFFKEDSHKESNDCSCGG
Test: phosphorylation enrichment, bacterial display (enrichment ratio); higher = better substrate or ligand; peptides without Tyr show the background
Returns: the value as a bare number; no unit string appended.

Exam item: Given VMSGPYELKAL [IL1B_Y140] , respond with its phosphorylation enrichment.
Marked response: 0.512

Exam item: Given SEDSEYYRAFE [CASQ2_Y178_K180R] , respond with its phosphorylation enrichment.
Marked response: 0.696

Exam item: Given CLLHCYFSQIH [MCM3AP_Y873_R878H] , respond with its phosphorylation enrichment.
Marked response: 0.453

Exam item: Given KRELRYMHSRV [ABCD1_Y281_G277R] , respond with its phosphorylation enrichment.
Marked response: 0.534

Exam item: Given MPLTKYLKRIK [CNGB3_Y200_E199K] , respond with its phosphorylation enrichment.
Marked response: 0.377

Exam item: Given LRRFIYRPPDR [OTOF_Y1231] , respond with its phosphorylation enrichment.
Marked response: 0.656

Exam item: Given EKLQKYYRKNP [EHHADH_Y682_Q685K] , respond with its phosphorylation enrichment.
Marked response: 0.484

Exam item: Given VKANTYENYWP [GATM_Y100_K102N] , respond with its phosphorylation enrichment.
Marked response: 7.05

Exam item: Given QPDFLYDHIQP [TRRAP_Y862] , respond with its phosphorylation enrichment.
Marked response: 3.31

Exam item: Given IFGVSYDEFRF [CFTR_Y512_YF] , respond with its phosphorylation enrichment.
Marked response: 0.524

Exam item: Given CTTIHYNYTCN [TP53_Y234_M237T] , respond with its phosphorylation enrichment.
Marked response: 0.556

Exam item: Given CHSDDYVHISI [TSC1_Y406_L411I] , respond with its phosphorylation enrichment.
Marked response: 0.67

Exam item: Given FRSSLYSLMET [MYO5C_Y633_L634S] , respond with its phosphorylation enrichment.
Marked response: 1.84

Exam item: Given HTKKNYGNSSV [HDX_Y197_A193T] , respond with its phosphorylation enrichment.
Marked response: 0.403

Exam item: Given PNAYIYVVQLP [L1CAM_Y420_A415P] , respond with its phosphorylation enrichment.
Marked response: 1.35

Exam item: Given LLANAYIFVVQ [L1CAM_Y418_YF] , respond with its phosphorylation enrichment.
Marked response: 1.13

Exam item: Given DLLNSYTENEG [HSPA4L_Y600_I601T] , respond with its phosphorylation enrichment.
Marked response: 0.618

Exam item: Given RPGSGYTNIMR [PKLR_Y564] , respond with its phosphorylation enrichment.
Marked response: 0.588

Exam item: Given YGIAQYCCRMG [LRRK2_Y2023] , respond with its phosphorylation enrichment.
Marked response: 11.2

Exam item: Given KVDKEYEVHVR [GHR_Y226_R229H] , respond with its phosphorylation enrichment.
Marked response: 0.548

Exam item: Given QPGDIYHQTWA [GBA_Y244] , respond with its phosphorylation enrichment.
Marked response: 0.88

Exam item: Given DKGTLYIVEQI [PLBD1_Y375] , respond with its phosphorylation enrichment.
Marked response: 0.525

Exam item: Given MDFRSYPREFG [RBM10_Y44_YF] , respond with its phosphorylation enrichment.
Marked response: 0.454

Exam item: Given SVVVPYEPPEL [TP53_Y220_V225L] , respond with its phosphorylation enrichment.
Marked response: 0.524

Exam item: Given QSSALYEDRYL [ASS1_Y83] , respond with its phosphorylation enrichment.
Marked response: 2.45

Exam item: Given VDGSVYKLHPS [GCK_Y413] , respond with its phosphorylation enrichment.
Marked response: 0.543

Exam item: Given KKHIPCREHKS [CSNK1G2_Y206_Y206C] , respond with its phosphorylation enrichment.
Marked response: 0.962

Exam item: Given PINLFYLMDLS [ITGB2_Y131_D128N_YF] , respond with its phosphorylation enrichment.
Marked response: 0.886

Exam item: Given HVLEEYKPKQG [SAXO2_Y37_P34L] , respond with its phosphorylation enrichment.
Marked response: 0.683

* * *

Answer each item with its documented phosphorylation enrichment.
Molecular target: Fyn (UniProt P06241)
Sequence (P06241 whole entry, looked up): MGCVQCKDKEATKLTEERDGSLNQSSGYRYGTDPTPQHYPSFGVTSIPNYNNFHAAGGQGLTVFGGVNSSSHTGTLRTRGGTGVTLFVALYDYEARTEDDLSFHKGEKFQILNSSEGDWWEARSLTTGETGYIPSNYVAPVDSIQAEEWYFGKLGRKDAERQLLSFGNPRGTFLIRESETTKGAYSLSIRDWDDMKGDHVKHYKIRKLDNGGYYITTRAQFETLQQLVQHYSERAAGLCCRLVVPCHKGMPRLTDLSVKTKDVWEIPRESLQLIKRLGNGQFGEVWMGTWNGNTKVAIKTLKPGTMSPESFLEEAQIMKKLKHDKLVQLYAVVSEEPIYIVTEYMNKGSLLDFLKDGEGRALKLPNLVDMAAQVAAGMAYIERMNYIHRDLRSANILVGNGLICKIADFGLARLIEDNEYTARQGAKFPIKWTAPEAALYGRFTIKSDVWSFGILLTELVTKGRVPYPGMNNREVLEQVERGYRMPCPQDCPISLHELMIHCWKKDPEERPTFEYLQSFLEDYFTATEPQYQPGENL
Experiment: phosphorylation enrichment, bacterial display (enrichment ratio); higher = better substrate or ligand; peptides without Tyr show the background
Returns: the value as a bare number; no unit string appended.

Exam item: Given CPTIHYNFMCN [TP53_Y234_T230P_YF] , respond with its phosphorylation enrichment.
Marked response: 0.557

Exam item: Given SSTAMYSAAGR [PSMB1_Y8_P11A] , respond with its phosphorylation enrichment.
Marked response: 0.403

Exam item: Given YKIYRYTLNDN [FN1_Y1975_L1974R] , respond with its phosphorylation enrichment.
Marked response: 0.368

Exam item: Given IINENYDYLKG [NUP98_Y1664] , respond with its phosphorylation enrichment.
Marked response: 0.406

Exam item: Given YEEDSYSHIMA [FDPS_Y388] , respond with its phosphorylation enrichment.
Marked response: 0.64

Exam item: Given NAGDFYDLFGG [PTPN11_Y63_T59A_YF] , respond with its phosphorylation enrichment.
Marked response: 5.68

Exam item: Given GHLFACDWISI [BEST1_Y227_Y227C_YF] , respond with its phosphorylation enrichment.
Marked response: 0.45

Exam item: Given KLQQWYREPRS [GPI_Y17_H20P] , respond with its phosphorylation enrichment.
Marked response: 0.446

Exam item: Given ENEGTYVCIAA [ADAMTSL3_Y1365_T1370A] , respond with its phosphorylation enrichment.
Marked response: 1.39

Exam item: Given PKSWNYELPAT [PROM1_Y34_A31S] , respond with its phosphorylation enrichment.
Marked response: 1.13

Exam item: Given RRSQSYNPTSG [PLEKHA2_Y185_I186N] , respond with its phosphorylation enrichment.
Marked response: 0.897

Exam item: Given NFSKMYCNPDA [KNL1_Y489_A486S_YF] , respond with its phosphorylation enrichment.
Marked response: 0.486

Exam item: Given PSQRRNVFFFS [PTEN_Y174_Y174N_YF] , respond with its phosphorylation enrichment.
Marked response: 0.924

Exam item: Given ILDEAYVMASM [EGFR_Y764_V769M] , respond with its phosphorylation enrichment.
Marked response: 0.539

Exam item: Given AGADGYGFLAP [FOXL2_Y186_YF] , respond with its phosphorylation enrichment.
Marked response: 0.517

Exam item: Given SFGESYDNSKS [MAN1B1_Y60_N59S] , respond with its phosphorylation enrichment.
Marked response: 0.466

Exam item: Given VDHFGYTKDDK [APOB_Y740] , respond with its phosphorylation enrichment.
Marked response: 0.369

Exam item: Given SSNPEYLSASD [INSR_Y999] , respond with its phosphorylation enrichment.
Marked response: 0.531

Exam item: Given QNTGDDYDLYG [PTPN11_Y62_Y62D] , respond with its phosphorylation enrichment.
Marked response: 1.35

Exam item: Given YTGDIYSSSNL [LZTR1_Y141_N143S] , respond with its phosphorylation enrichment.
Marked response: 6.08

Exam item: Given TLSGIYQYSIA [FOXL2_Y81_I84S] , respond with its phosphorylation enrichment.
Marked response: 4.22

Exam item: Given VDSLRYIFPKL [EIF2B3_Y92_A87V_YF] , respond with its phosphorylation enrichment.
Marked response: 0.372

Exam item: Given GGYNNYGYGSD [HNRNPH3_Y159_N163S] , respond with its phosphorylation enrichment.
Marked response: 0.379

Exam item: Given RLPNGYGLAYR [DLK1_Y262_S260N] , respond with its phosphorylation enrichment.
Marked response: 0.961

Exam item: Given IRFSDYVEVAD [PHACTR1_Y525] , respond with its phosphorylation enrichment.
Marked response: 0.538

Exam item: Given IRNRDYDDIDD [TTYH2_Y424_T419I] , respond with its phosphorylation enrichment.
Marked response: 0.594

Exam item: Given DVLVEYQEEGR [GNS_Y416_G418E] , respond with its phosphorylation enrichment.
Marked response: 0.593

Exam item: Given KVKSIYFHTQG [AR_Y916_P914S] , respond with its phosphorylation enrichment.
Marked response: 0.51
